Test system: PC-3
Assay: NCI tumour cell line growth inhibition, 48 h
The source made the active and inactive calls. No stated cut-off is given here; in the data, active = GI50 up to about 1.1 µM and inactive = higher.
# Lookup of reported GI50 keyed by entry

Compound	GI50
CCC(C)C1=C(O)[N+]2([O-])Oc3ccc(-c4c(O)c(O)c(-c5ccc(OC(C)=O)cc5)c(OC(C)=O)c4OC(C)=O)cc3OC2(C(C)CC)C(=O)N1O (stereo not drawn)	> 50 µM (inactive)
COc1ccc(CCNC(=O)Cc2cc(OC)c(OC)cc2CO)cc1OC	> 100 µM (inactive)

[Q] Find GI50 (PC-3) for the entry COc1ccc2[nH]c3c([N+](=O)[O-])ccc(Cl)c3c(=O)c2c1
[A] 22.5 µM (inactive)

====

System: RPMI-8226
Experiment: NCI tumour cell line growth inhibition, 48 h
Activity calls are given as the source filed them. No stated cut-off is given here; in the data, active = GI50 up to about 1.1 µM and inactive = higher.
Assay Metric: GI50

Molecule	Reported Result
COC1=CC2(CC(OC)=C1OC)OC21COc2ccccc2C1=O (stereo not drawn)	51.5 µM (inactive)
CC(=O)N1N=C(c2c(O)ccc3ccccc23)CC1c1ccc(Cl)cc1 (stereo not drawn)	10.5 µM (inactive)
O=c1c(Sc2c(SCSc3cnc4ccccc4c3Sc3c[nH]c4ccccc4c3=O)cnc3ccccc23)c[nH]c2ccccc12	14.5 µM (inactive)
CN(C)c1n/c(=N/Cc2ccccn2)ss1	4.48 µM (inactive)
CC1(C)C2=CCCC(=O)[C@@]2(C)CC[C@@H]1O	> 100 µM (inactive)

[Q] Find GI50 (RPMI-8226) for the entry CC1(C)N[PH]2(Nc3ccccc3O2)OC1=O
[A] 5.32 µM (inactive)

[Q] Find GI50 (RPMI-8226) for the entry O=C(O)CCCSc1ccccc1
[A] > 100 µM (inactive)

[Q] Find GI50 (RPMI-8226) for the entry OCCN(CCO)c1ccc2c(c1)Cc1ccccc1-2
[A] 44.8 µM (inactive)

====

# Lookup of reported GI50 keyed by entry
Tested on: KM-20L2
Assay: NCI tumour cell line growth inhibition, 48 h
Calls of active or inactive are those of the source. Cut-off read from the data, not from the text of the source: active = GI50 up to about 1.1 µM and inactive = higher. Non-standard residues stand in square brackets, D forms with d. Residues, ends and D or L forms follow the SMILES beside them. ξ: configuration not given here. *: point of attachment. ξNMeF = CNC(Cc1ccccc1)C(=O)O; NMeV = CN[C@H](C(=O)O)C(C)C; Boc = CC(C)(C)OC(=O)*; OBn = c1ccc(CO*)cc1

Some compounds with recorded GI50:
Compound	Measurement Target	Reported Result
O=C(COc1ccc(Br)cc1Br)N1N=C(c2ccc([N+](=O)[O-])o2)CC1(O)c1ccccc1 (stereo not given)	KM-20L2	17.9 µM (inactive)
CC1C(=O)O[C@H]2C1CC[C@@]1(C)[C@H](O)CC[C@@]13C[C@]2(O)OO3 (stereo not given in full)	KM-20L2	> 100 µM (inactive)
COC1OCC(O)C(NC(=O)N(C)N=O)C1O (stereo not given)	KM-20L2	> 100 µM (inactive)
CC(C)[C@@H](C(=O)N(C)[C@H](C(=O)N1CCC[C@H]1C(=O)OCc1ccccc1)C(C)C)N(C)C(=O)C(Cc1ccccc1)N(C)C(=O)[C@H](NC(=O)OC(C)(C)C)C(C)C (stereo not given in full) (Boc-[dV][ξNMeF][NMeV][NMeV]P-OBn)	KM-20L2	> 31.6 µM (inactive)

For the next question, use this compound.
[Q] // lookup GI50 for CCOc1ccccc1NC(=O)CSc1nnc(Cc2ccccc2)o1
[A] 38.1 µM (inactive)

====

# Lookup of reported GI50 keyed by entry
Test system: EKVX
Assay: NCI tumour cell line growth inhibition, 48 h
Where a name gives a salt, the structure may show the parent alone. Calls of active or inactive are those of the source. Rule as the data show it: active = GI50 up to about 1.1 µM and inactive = higher.

Molecule	Reported Result
O=c1c(-c2ccccc2)c(SCCN2CCCC2)n(-c2ccccc2)c(=S)n1-c1ccccc1	> 100 µM (inactive)
O=C(O)c1nnsc1COCc1ccccc1	> 100 µM (inactive)
Oc1ccc(C(O)C2CCCCN2)cc1O (centres undefined) [RIMITEROL HYDROBROMIDE]	> 100 µM (inactive)

[Q] // lookup GI50 for O=C(NN1C(=O)C(Cl)C1c1ccc(Cl)cc1)c1c(Cl)c(Cl)c(Cl)c(Cl)c1-c1nc2ccccc2[nH]1 (centres undefined)
[A] 20.7 µM (inactive)

[Q] // lookup GI50 for CC(Oc1ccccc1)C(=O)NN (centres undefined)
[A] > 100 µM (inactive)

[Q] // lookup GI50 for Cc1onc(-c2c(F)cccc2Cl)c1C(=O)N[C@@H]1C(=O)N2[C@@H]1SC(C)(C)[C@@H]2C(=O)O
[A] > 100 µM (inactive)

[Q] // lookup GI50 for Cc1cc(C)c(C(=O)c2no[n+]([O-])c2C(=O)c2c(C)cc(C)c(Br)c2C)c(C)c1Br
[A] 12 µM (inactive)

[Q] // lookup GI50 for CC(=O)c1ccc(NC(=O)C(=O)CC(=O)c2sc(-n3nc(-c4ccccc4)cc3-c3ccccc3)nc2C)cc1
[A] > 100 µM (inactive)

[Q] // lookup GI50 for COc1cc(/C=C/C(=O)OCCc2ccccc2)ccc1O
[A] 16.3 µM (inactive)

====

Tested on: SNB-19
Assay: NCI tumour cell line growth inhibition, 48 h
Calls of active or inactive are those of the source. Rule as the data show it: active = GI50 up to about 1.1 µM and inactive = higher.
The categories you may choose from are active, inactive

Example entries and their recorded answers appear below.
Compound	Measurement Target	Class Label
O/N=C1\SC(=N\O)/C(=N/O)S\C1=N/O	SNB-19	inactive
CC(=O)c1ccc(N2C(=O)C3c4[nH]c5ccccc5c4C4CCC(C(C)(C)C)CC4C3C2=O)cc1 (stereo unspecified)	SNB-19	inactive

[Q] Entry NC(=S)N/N=C\c1nccc2ccccc12 : call = ?
[A] active

[Q] Entry Cc1ccc(/N=C2N=C(Cl)/C(=C\c3ccco3)N\2)cc1 : call = ?
[A] inactive

[Q] Entry Cc1nc(-n2nc(-c3ccccc3)cc2-c2ccccc2)sc1C(=O)/C=C/c1cccc([N+](=O)[O-])c1 : call = ?
[A] inactive

[Q] Entry COc1ccccc1/C=C\c1cnnc2ccccc12 : call = ?
[A] inactive

[Q] Entry CCOC(=O)n1[nH]c(=O)n(-c2ccccc2)c1=O : call = ?
[A] inactive

====

System: HOP-92
Assay: NCI tumour cell line growth inhibition, 48 h
The source made the active and inactive calls. Cut-off read from the data, not from the text of the source: active = GI50 up to about 1.1 µM and inactive = higher.
Assay Metric: GI50

Some compounds with recorded GI50:
Compound	Measurement Target	GI50
CC(OC(=O)NCn1cc(-c2ccccc2)nn1)c1ccccc1 (stereo not drawn)	HOP-92	56.2 µM (inactive)
Cc1cccc(C(C)C)c1NC(=O)C(=O)CC(=O)c1sc(Nc2ccccc2Cl)nc1C	HOP-92	10.4 µM (inactive)

[Q] Find GI50 (HOP-92) for the entry O=C1C/C(=C\O)C(=O)c2ccccc2N1
[A] > 100 µM (inactive)

====

# Lookup of reported GI50 keyed by entry
System: NCI/ADR-RES
Assay: NCI tumour cell line growth inhibition, 48 h
Activity calls are given as the source filed them. Cut-off read from the data, not from the text of the source: active = GI50 up to about 1.1 µM and inactive = higher. Peptide text beside a SMILES is read from it. * marks the point of attachment. Cbz = O=C(OCc1ccccc1)*; Boc = CC(C)(C)OC(=O)*; OBn = c1ccc(CO*)cc1

Molecule	GI50
NN(CC(=O)O)CC(=O)O	> 100 µM (inactive)

[Q] Find GI50 (NCI/ADR-RES) for the entry O=C1/C(=C/c2cccc(Br)c2)Cc2ccccc21
[A] 50.6 µM (inactive)

[Q] Find GI50 (NCI/ADR-RES) for the entry C[N+]1(CCC(=O)c2ccco2)CC2CCC(CC2)C1 (stereo not given)
[A] > 100 µM (inactive)

[Q] Find GI50 (NCI/ADR-RES) for the entry COc1cc(S(=O)(=O)Nc2nc(-c3ccc(N4C(=O)C(CC(=O)O)SC4c4cccs4)cc3)cs2)ccc1Cl (stereo not given)
[A] 29.3 µM (inactive)

[Q] Find GI50 (NCI/ADR-RES) for the entry CC(C)CCC1(O)O[C@H]2C[C@H]3[C@@H]4CCC5CC(=O)C=C[C@]5(C)[C@H]4CC[C@]3(C)[C@H]2[C@@H]1C (stereo not given in full)
[A] 15.6 µM (inactive)

[Q] Find GI50 (NCI/ADR-RES) for the entry COC(=O)C(CCCCNC(=O)OCc1ccccc1)NC(=O)C(CCC(=O)OCc1ccccc1)NC(=O)OC(C)(C)C (stereo not given) (Boc-Glu(OBn)-Lys(Cbz)-OMe; configuration not given here)
[A] > 100 µM (inactive)

[Q] Find GI50 (NCI/ADR-RES) for the entry C#CCOCCCC(=O)O
[A] > 100 µM (inactive)

====

# Lookup of reported GI50 keyed by entry
Test system: UACC-62
Assay: NCI tumour cell line growth inhibition, 48 h
The source made the active and inactive calls. No stated cut-off is given here; in the data, active = GI50 up to about 1.1 µM and inactive = higher.

[Q] Find GI50 (UACC-62) for the entry COC1OCC(O)C(NC(=O)N(C)N=O)C1O (stereo unspecified)
[A] > 100 µM (inactive)

[Q] Find GI50 (UACC-62) for the entry CO/C(N)=C(C#N)/N=C/c1ccsc1
[A] 33.4 µM (inactive)

[Q] Find GI50 (UACC-62) for the entry COC(=O)c1c(C(=O)OC)c2c3ccccc3n(C)c2c2c1c1ccccc1n2C
[A] > 100 µM (inactive)

[Q] Find GI50 (UACC-62) for the entry COC(=O)CCC(=O)Nc1cc(Cl)ccc1Cl
[A] > 100 µM (inactive)

[Q] Find GI50 (UACC-62) for the entry O=c1c2c([N+](=O)[O-])cccc2nc2[nH]c3ccccc3n12
[A] 19.5 µM (inactive)

[Q] Find GI50 (UACC-62) for the entry CCOC(=O)n1[nH]c(=O)n(-c2ccccc2)c1=O
[A] > 100 µM (inactive)
